tested on: P388; assay: Cytotoxicity against mouse P388 cells after 72 hrs by MTT assay; assay type: functional, cell-based; conditions: P388, 72 h
pIC50: −log10 of the molar value.
This listing pairs compounds with measured pIC50.

>>> endpoint_value("C=CC(C)(C)c1[nH]c2ccc(C[C@@H](Cl)C(C)(C)O)cc2c1/C=C1\\NC(=O)[C@H](C)NC1=O")
"< 4.30"
>>> endpoint_value("C=CC(C)(C)c1[nH]c2ccc(CC=C(C)C)cc2c1/C=C1\\NC(=O)C(C)(OC)NC1=O (stereo unspecified)")
"< 4.30"
>>> endpoint_value("C=CC(C)(C)c1[nH]c2ccccc2c1/C=C1\\NC(=O)C(C)(OC)NC1=O (stereo unspecified)")
"< 4.30"
>>> endpoint_value("C=CC(C)(C)c1[nH]c2ccc(C[C@@H](O)C(=C)C)cc2c1/C=C1\\NC(=O)[C@H](C)NC1=O")
"< 4.30"
>>> endpoint_value("CC(=O)O[C@H]1C(=O)[C@@]2(C)[C@H]([C@H](OC(=O)c3ccccc3)[C@]3(O)C[C@H](OC(=O)[C@H](O)[C@@H](NC(=O)c4ccccc4)c4ccccc4)C(C)=C1C3(C)C)[C@]1(OC(C)=O)CO[C@@H]1C[C@@H]2O")
6.03

Recorded pIC50 for C=CC(C)(C)c1[nH]c2ccc(C[C@@H](O)C(C)(C)Cl)cc2c1/C=C1\NC(=O)[C@H](C)NC1=O , please? < 4.30
